The following molecules were reported with IC50 values on Hepatocyte growth factor receptor (Homo sapiens, UniProt P08581) in different studies.

{"columns": ["molecule", "tgt", "IC50"],
 "data": [
  ["Nc1ncc(-c2cccc(C(=O)N3CCCC3)c2)cc1-c1nc2ccccc2s1", "Hepatocyte growth factor receptor (Homo sapiens, UniProt P08581)", "1 to 20 µM"],
  ["CCOC(=O)Nc1cccc(Cn2nc(-c3ccc(OCCC4CCCN4C)cc3)ccc2=O)c1 (centres unmarked)", "Hepatocyte growth factor receptor (Homo sapiens, UniProt P08581)", "0.01 to 1 µM"],
  ["Nc1ncc(-c2cnn(C3CCNCC3)c2)cc1-c1nc2cc(Cl)ccc2s1", "Hepatocyte growth factor receptor (Homo sapiens, UniProt P08581)", "≤ 0.1 µM"],
  ["CCN1CCC(n2cc(-c3cnc4[nH]cc(Cc5c(F)ccc(OC)c5F)c4c3)cn2)CC1", "Hepatocyte growth factor receptor (Homo sapiens, UniProt P08581)", "0.0091 µM"],
  ["Cn1cc(C(=O)Nc2ccc(Oc3ccnc4cc(OCC5CC5)c5c(c34)OCCO5)c(F)c2)c(=O)n(-c2ccc(F)cc2)c1=O", "Hepatocyte growth factor receptor (Homo sapiens, UniProt P08581)", "0.05 to 0.5 µM"],
  ["COc1ccc(-c2ccn3nccc(Oc4ccc(NC(=O)C5(C(=O)Nc6ccc(F)cc6)CC5)cc4F)c23)cc1N", "Hepatocyte growth factor receptor (Homo sapiens, UniProt P08581)", "< 0.04 µM"],
  ["CCOc1ccn(-c2ccc(F)cc2)c(=O)c1C(=O)Nc1ccc(Oc2ccnc3cc(OCCCN4CCCC4)c4c(c23)OCCO4)c(F)c1", "Hepatocyte growth factor receptor (Homo sapiens, UniProt P08581)", "≤ 0.05 µM"],
  ["Cc1c(O)cccc1C(=O)c1c[nH]c2ncc(-c3cccs3)cc12", "Hepatocyte growth factor receptor (Homo sapiens, UniProt P08581)", "≤ 10 µM"]
]}
